8OG:A repair function score values, listed per item
B1: library; numbered along this chain (parent)
chain: MRKPRAAVGSGHRKQAASQEGRQKHAKNNSQAKPSACDGLARQPEEVVLQASVSSYHLFRDVAEVTAFRGSLLSWYDQEKRDLPWRRRAEDEMDLDRRAYAVWVSEVMLQQTQVATVINYYTGWMQKWPTLQDLASASLEEVNQLWAGLGYYSRGRRLQEGARKVVEELGGHMPRTAETLQQLLPGVGRYTAGAIASIAFGQATGVVDGNVARVLCRVRAIGADPSSTLVSQQLWGLAQQLVDPARPGDFNQAAMELGATVCTPQRPLCSQCPVESLCRARQRVEQEQLLASGSLSGSPDVEECAPNTGQCHLCLPPSEPWDQTLGVVNFPRKASRKPPREESSATCVLEQPGALGAQILLVQRPNSGLLAGLWEFPSVTWEPSEQLQRKALLQELQRWAGPLPATHLRHLGEVVHTFSHIKLTYQVYGLALEGQTPVTTVPPGARWLTQEEFHTAAVSTAMKKVFRVYQGQQPGTCMGSKRSQVSSPCSRKKPRMGQQVLDNFFRSHISTDAHSLNSAAQ

# Variants of: B1
# assay comment: 8OG:A repair function score (normalized; synonymous = 0, nonsense = -1) (normalized log-likelihood score); higher = more repair activity (WT-like);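 note: cells sorted at 72 h after reporter transfection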
# run conditions: with 8OG:A DNA repair reporter (GFP) in HEK-293 MUTYH KO cells
// return a plain number; no unit text

Guide cases for 8OG:A repair function score, answers given:
[
  {
    "variant code": "R154E",
    "val": -1.23
  },
  {
    "variant code": "L58K",
    "val": -0.021
  },
  {
    "variant code": "A357T",
    "val": -0.0252
  }
]

Could you now look at the following variant, please?
// lookup 8OG:A repair function score for R491A
0.00371

All values here come from the supplement of paper PMC11908140.
